Entries and their IC50 values follow.
# System: LNCaP
# Method: Antiproliferative activity against human LNCAP cells assessed as suppression of cell viability after 24 hrs by MTT assay
# Format: functional, cell-based

// worked examples, IC50 included
COc1cc2c(c(C)c1C)OC(C)(CCCC(C)C)CC2 (centres undefined): > 30 µM
CC(C)CCCC1(C)CC(=O)c2cc(O)ccc2O1 (centres undefined): > 30 µM
CC(C)CCCC1(C)CCc2cc(N)ccc2O1 (centres undefined): > 30 µM

Read the next record carefully.
Task: Could you share what IC50 was measured for `Cc1c(O)cc2c(c1C)O[C@](C)(CCC[C@H](C)CCC[C@H](C)CCCC(C)C)CC2` , tested on LNCaP?
Output: > 100 µM

Hello, the source for this data is ChEMBL document CHEMBL3414473, in case you need it.
